target.of.assay: human CRTH2 (Homo sapiens)
Sequence (Q9Y5Y4 1-395): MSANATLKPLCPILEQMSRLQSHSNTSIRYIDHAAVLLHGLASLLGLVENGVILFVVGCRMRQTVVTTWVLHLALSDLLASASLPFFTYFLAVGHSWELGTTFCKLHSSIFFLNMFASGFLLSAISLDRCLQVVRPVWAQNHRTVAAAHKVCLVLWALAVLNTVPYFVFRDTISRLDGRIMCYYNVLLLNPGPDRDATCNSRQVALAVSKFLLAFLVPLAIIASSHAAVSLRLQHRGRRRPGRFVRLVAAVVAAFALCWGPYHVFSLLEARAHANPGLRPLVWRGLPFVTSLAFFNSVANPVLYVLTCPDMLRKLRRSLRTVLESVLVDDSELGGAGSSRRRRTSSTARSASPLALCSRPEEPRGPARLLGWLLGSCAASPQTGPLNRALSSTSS
assay.explanation: Human CRTH2 Receptor Binding Assay (whole cell, [3H]ramatroban)
Set-up: expressed in transfected cells; host or cells: CHO-K1
stated.conditions: whole CHO-K1 cells stably expressing human CRTH2 and G-alpha16; 20 nM [3H]ramatroban; 1 hour, room temperature
Reported values of IC50 for individual entries
reported.metric: IC50 (nM)

chem.smiles	target.of.assay	reported.metric	unit.info	measured.result
Cc1c(CC(=O)O)cc2ccc(F)cc2c1C(=O)N1CCN(c2ccc(C#N)cc2)CC1	human CRTH2 (Homo sapiens)	IC50	nM	22
CCS(=O)(=O)N1CCN(C(=O)c2cc(CC(=O)O)cc3ccc(F)cc23)CC1	human CRTH2 (Homo sapiens)	IC50	nM	7.2
Cc1c(CC(=O)O)cc2ccc(F)cc2c1C(=O)N1CCN(c2cccc(C(F)(F)F)c2)CC1	human CRTH2 (Homo sapiens)	IC50	nM	57.1

---

target.of.assay: human CRTH2 (Homo sapiens)
Sequence (Q9Y5Y4 1-395): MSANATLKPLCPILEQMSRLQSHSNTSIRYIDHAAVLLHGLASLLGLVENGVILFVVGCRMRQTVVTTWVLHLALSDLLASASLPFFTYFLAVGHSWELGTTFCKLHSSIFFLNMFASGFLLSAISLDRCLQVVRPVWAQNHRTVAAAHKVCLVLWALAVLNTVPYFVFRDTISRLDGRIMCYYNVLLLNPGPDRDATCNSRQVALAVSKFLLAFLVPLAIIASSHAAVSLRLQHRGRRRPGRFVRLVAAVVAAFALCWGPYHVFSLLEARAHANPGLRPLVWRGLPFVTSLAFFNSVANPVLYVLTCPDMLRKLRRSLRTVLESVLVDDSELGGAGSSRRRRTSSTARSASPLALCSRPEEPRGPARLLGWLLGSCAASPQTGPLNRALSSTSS
assay.explanation: Human CRTH2 Receptor Binding Assay (whole cell, [3H]ramatroban)
Design: expressed in transfected cells; host or cells: CHO-K1
stated.conditions: whole CHO-K1 cells stably expressing human CRTH2 and G-alpha16; 20 nM [3H]ramatroban; 1 hour, room temperature
Reported values of log10(IC50) for individual entries
reported.metric: log10(IC50) (log10 of the value in nM)

chem.smiles	log10(IC50)
CCNC(=O)N1CCC(Oc2cc(CC(=O)O)cc3ccc(F)cc23)CC1	1.39
Cc1c(CC(=O)O)cc2ccc(F)cc2c1C(=O)N1CCN(S(=O)(=O)c2ccc(F)cc2)CC1	0.92
Cc1c(CC(=O)O)cc2ccc(F)cc2c1C(=O)N1CCN(S(=O)(=O)c2ccccc2F)CC1	0.68
Cc1cccc(N2CCN(C(=O)c3c(C)c(CC(=O)O)cc4ccc(F)cc34)CC2)c1	1.91
Cc1c(CC(=O)O)cc2ccc(F)cc2c1C(=O)N1CCN(S(=O)(=O)C(C)C)CC1	1.19
CC(C)S(=O)(=O)N1CCC(Oc2cc(CC(=O)O)cc3ccc(F)cc23)CC1	1.48
O=C(O)Cc1cc(OC2CCN(C(=O)Nc3ccc(F)cc3)CC2)c2cc(F)ccc2c1	0.70
CCCS(=O)(=O)N1CCN(C(=O)c2cc(CC(=O)O)cc3ccc(F)cc23)CC1	0.81

---

target.of.assay: human CRTH2 (Homo sapiens, UniProt Q9Y5Y4)
Sequence (Q9Y5Y4 1-395): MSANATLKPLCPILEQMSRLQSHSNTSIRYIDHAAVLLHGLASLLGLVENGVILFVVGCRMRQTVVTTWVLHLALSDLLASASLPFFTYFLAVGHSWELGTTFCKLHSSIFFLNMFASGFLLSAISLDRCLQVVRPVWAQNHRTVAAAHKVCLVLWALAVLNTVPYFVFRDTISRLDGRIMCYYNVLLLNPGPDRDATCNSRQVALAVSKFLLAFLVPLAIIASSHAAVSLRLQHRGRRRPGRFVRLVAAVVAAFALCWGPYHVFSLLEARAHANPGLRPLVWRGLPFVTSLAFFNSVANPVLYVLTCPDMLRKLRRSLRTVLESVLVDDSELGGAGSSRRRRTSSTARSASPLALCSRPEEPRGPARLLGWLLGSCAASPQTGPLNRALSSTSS
assay.explanation: Human CRTH2 Receptor Binding Assay (whole cell, [3H]ramatroban)
Set-up: expressed in transfected cells; host or cells: CHO-K1
stated.conditions: whole CHO-K1 cells stably expressing human CRTH2 and G-alpha16; 20 nM [3H]ramatroban; 1 hour, room temperature
pIC50: −log10 of the molar value.
Label criterion met when pIC50 is at or above 8; anything below gets criterion not met.

chem.smiles	qualitative.label
Cc1c(CC(=O)O)cc2ccc(F)cc2c1C(=O)N1CCN(S(=O)(=O)c2ccccc2)CC1	criterion met
CCC(=O)N1CCC(Oc2cc(CC(=O)O)cc3ccc(F)cc23)CC1	criterion not met
O=C(O)Cc1cc(OC2CCN(C(=O)Nc3ccccc3F)CC2)c2cc(F)ccc2c1	criterion met
COc1ccccc1N1CCN(C(=O)c2c(C)c(CC(=O)O)cc3ccc(F)cc23)CC1	criterion not met
O=C(O)Cc1cc(OC2CCN(S(=O)(=O)Cc3ccccc3)CC2)c2cc(F)ccc2c1	criterion met
CC(C)(C)OC(=O)N1CCC(Oc2cc(CC(=O)O)cc3ccc(F)cc23)CC1	criterion not met
COc1cccc(N2CCN(C(=O)c3c(C)c(CC(=O)O)cc4ccc(F)cc34)CC2)c1	criterion not met
O=C(O)Cc1cc(OC2CCN(C(=O)C3CC3)CC2)c2cc(F)ccc2c1	criterion not met
Cc1c(CC(=O)O)cc2ccc(F)cc2c1C(=O)N1CCN(c2ccccn2)CC1	criterion met
Cc1c(CC(=O)O)cc2ccc(F)cc2c1C(=O)N1CCN(c2ccc(F)cc2F)CC1	criterion not met
O=C(O)Cc1cc(OC2CCN(S(=O)(=O)c3ccccc3)CC2)c2cc(F)ccc2c1	criterion met
COc1ccc(N2CCN(C(=O)c3c(C)c(CC(=O)O)cc4ccc(F)cc34)CC2)cc1	criterion not met
Cc1c(CC(=O)O)cc2ccc(F)cc2c1C(=O)N1CCN(S(=O)(=O)c2ccc(F)c(F)c2)CC1	criterion met
Cc1c(CC(=O)O)cc2ccc(F)cc2c1C(=O)N1CCN(c2c(Cl)cncc2Cl)CC1	criterion not met
Cc1c(CC(=O)O)cc2ccc(F)cc2c1C(=O)N1CC2(C1)CN(S(=O)(=O)c1ccccc1)C2	criterion not met
O=C(O)Cc1cc(OC2CCN(C(=O)Cc3ccccc3)CC2)c2cc(F)ccc2c1	criterion met
Cc1c(CC(=O)O)cc2ccc(F)cc2c1C(=O)N1CCN(c2ccccc2Cl)CC1	criterion not met
O=C(O)Cc1cc(OC2CCN(S(=O)(=O)C3CC3)CC2)c2cc(F)ccc2c1	criterion not met
CCS(=O)(=O)N1CCC(Oc2cc(CC(=O)O)cc3ccc(F)cc23)CC1	criterion not met
CCS(=O)(=O)N1CCN(C(=O)c2c(C)c(CC(=O)O)cc3ccc(F)cc23)CC1	criterion not met
O=C(O)Cc1cc(OC2CCN(S(=O)(=O)c3ccc(F)cc3)CC2)c2cc(F)ccc2c1	criterion met
Cc1c(CC(=O)O)cc2ccc(F)cc2c1C(=O)N1CCN(c2ncccn2)CC1	criterion not met
CCc1ccccc1N1CCN(C(=O)c2c(C)c(CC(=O)O)cc3ccc(F)cc23)CC1	criterion not met
Cc1c(CC(=O)O)cc2ccc(F)cc2c1C(=O)N1CCN(c2cc(Cl)cc(Cl)c2)CC1	criterion not met
O=C(O)Cc1cc(OC2CCN(C(=O)NCCc3ccccc3)CC2)c2cc(F)ccc2c1	criterion met
O=C(O)Cc1cc(OC2CCN(C(=O)c3cccc(F)c3)CC2)c2cc(F)ccc2c1	criterion not met
CC(=O)N1CCC(Oc2cc(CC(=O)O)cc3ccc(F)cc23)CC1	criterion not met

---

target.of.assay: human CRTH2 (Homo sapiens, UniProt Q9Y5Y4)
Sequence (Q9Y5Y4 1-395): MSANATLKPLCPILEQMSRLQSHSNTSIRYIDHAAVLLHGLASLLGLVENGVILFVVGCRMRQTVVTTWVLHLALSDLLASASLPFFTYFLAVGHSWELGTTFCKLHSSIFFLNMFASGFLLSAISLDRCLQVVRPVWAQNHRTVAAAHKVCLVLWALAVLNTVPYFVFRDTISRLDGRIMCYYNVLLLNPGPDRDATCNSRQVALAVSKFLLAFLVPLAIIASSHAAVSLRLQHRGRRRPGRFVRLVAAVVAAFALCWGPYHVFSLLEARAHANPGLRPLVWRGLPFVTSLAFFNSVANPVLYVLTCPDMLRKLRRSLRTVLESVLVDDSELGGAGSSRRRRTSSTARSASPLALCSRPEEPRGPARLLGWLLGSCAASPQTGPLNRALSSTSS
assay.explanation: Human CRTH2 Receptor Binding Assay (whole cell, [3H]ramatroban)
Parameters: expressed in transfected cells; host or cells: CHO-K1
stated.conditions: whole CHO-K1 cells stably expressing human CRTH2 and G-alpha16; 20 nM [3H]ramatroban; 1 hour, room temperature
pIC50: −log10 of the molar value.
Reported values of pIC50 for individual entries

chem.smiles	pIC50
Cc1c(CC(=O)O)cc2ccc(F)cc2c1C(=O)N1CCN(c2ccccc2C(F)(F)F)CC1	6.60
Cc1c(CC(=O)O)cc2ccc(F)cc2c1C(=O)N1CCN(c2ccc(F)cc2)CC1	7.74
O=C(O)Cc1cc(OC2CCN(S(=O)(=O)C3CCCC3)CC2)c2cc(F)ccc2c1	8.00
Cc1c(CC(=O)O)cc2ccc(F)cc2c1C(=O)N1CCN(c2cc(C(F)(F)F)cc(C(F)(F)F)c2)CC1	6.70
Cc1c(CC(=O)O)cc2ccc(F)cc2c1C(=O)N1CCN(S(=O)(=O)C2CC2)CC1	8.04
Cc1c(CC(=O)O)cc2ccc(F)cc2c1C(=O)N1CCN(c2ccccc2F)CC1	6.82
O=C(O)Cc1cc(OC2CCN(C(=O)Nc3cccc(F)c3)CC2)c2cc(F)ccc2c1	8.52
Cc1c(CC(=O)O)cc2ccc(F)cc2c1C(=O)N1CC2(C1)CN(S(=O)(=O)Cc1ccccc1)C2	7.05
